assay: Antiproliferative activity against mouse B16-BL6 cells assessed as cell viability after 72 hrs by MTT assay; format: functional, cell-based; settings: B16-BL6, 72 h
pIC50: −log10 of the molar value.
Provide the reported pIC50 of each item.

Name the reported pIC50 value associated with the compound C=C1CO[C@@]2(O[C@H]3C[C@H]4[C@@H]5CC=C6C[C@@H](O)C[C@@H](O[C@@H]7OC[C@H](O)[C@H](O)[C@H]7O[C@@H]7O[C@@H](C)[C@H](O)[C@@H](O)[C@H]7O)[C@]6(C)[C@H]5CC[C@]4(C)[C@H]3[C@@H]2C)[C@@H](O)[C@H]1O[C@@H]1O[C@H](C)[C@H](O)[C@H](O)[C@H]1O
< 4.00

Name the reported pIC50 value associated with the compound CC(=O)O[C@H]1CO[C@@H](O[C@@H]2C[C@H](O)CC3=CC[C@H]4[C@@H]5C[C@@H]6OC(CC[C@@H](C)CO[C@@H]7O[C@H](CO)[C@@H](O)[C@H](O)[C@H]7O)=C(C)[C@@H]6[C@@]5(C)CC[C@@H]4[C@]32C)[C@H](O[C@@H]2O[C@@H](C)[C@H](O)[C@@H](O)[C@H]2O)[C@H]1O[C@@H]1OC[C@@H](O)[C@H](O)[C@H]1O
< 4.00

Name the reported pIC50 value associated with the compound CC1CC[C@@]2(OC1)O[C@H]1C[C@@]3(O)[C@@H]4CC=C5C[C@@H](O)C[C@@H](O)[C@]5(C)[C@H]4CC[C@]3(C)[C@@]1(O)[C@@H]2C (mixture of isomers) [(25R,S)-NAMOGENIN A]
< 4.00

Name the reported pIC50 value associated with the compound C=C1CC[C@@]2(OC1)O[C@H]1C[C@H]3[C@@H]4CC=C5C[C@@H](O)C[C@@H](O[C@@H]6OC[C@H](O)[C@H](O)[C@H]6O[C@@H]6O[C@@H](C)[C@H](O)[C@@H](O)[C@H]6O)[C@]5(C)[C@H]4CC[C@]3(C)[C@H]1[C@@H]2C
4.39

Name the reported pIC50 value associated with the compound C=C1CC[C@@]2(OC1)O[C@H]1C[C@@]3(O)[C@@H]4CC=C5C[C@@H](O)C[C@@H](O)[C@]5(C)[C@H]4CC[C@]3(C)[C@@]1(O)[C@@H]2C
< 4.00

Name the reported pIC50 value associated with the compound C=C1CO[C@@]2(O[C@H]3C[C@H]4[C@@H]5CC=C6C[C@@H](O)C[C@@H](O[C@@H]7OC[C@H](O)[C@H](O[C@@H]8OC[C@@H](O)[C@H](OC(C)=O)[C@H]8O)[C@H]7O[C@@H]7O[C@@H](C)[C@H](OC(C)=O)[C@@H](OC(C)=O)[C@H]7OC(C)=O)[C@]6(C)[C@H]5CC[C@]4(C)[C@H]3[C@@H]2C)[C@@H](O)[C@H]1O[C@@H]1O[C@H](C)[C@H](O)[C@H](O)[C@H]1O
5.01

###

test: Antiproliferative activity against mouse B16-BL6 cells assessed as cell viability after 72 hrs by MTT assay; assay type: functional, cell-based; settings: B16-BL6, 72 h
Counter-ions that a name gives are not always drawn.
IC50 strictly under 10 µM means Y; at 10 µM or over means N.

Decide: IC50 of C=C1CO[C@@]2(O[C@H]3C[C@H]4[C@@H]5CC=C6C[C@@H](O)C[C@@H](O[C@@H]7OC[C@H](O)[C@H](O[C@@H]8OC[C@@H](O)[C@H](O)[C@H]8O)[C@H]7O[C@@H]7O[C@@H](C)[C@H](OC(C)=O)[C@@H](OC(C)=O)[C@H]7OC(C)=O)[C@]6(C)[C@H]5CC[C@]4(C)[C@H]3[C@@H]2C)[C@@H](O)[C@H]1O strictly below 10 µM?
N

Decide: IC50 of C=C1CO[C@@]2(O[C@H]3C[C@H]4[C@@H]5CC=C6C[C@@H](O)C[C@@H](O[C@@H]7OC[C@H](O)[C@H](O)[C@H]7O[C@@H]7O[C@@H](C)[C@H](OC(C)=O)[C@@H](O)[C@H]7O)[C@]6(C)[C@H]5CC[C@]4(C)[C@H]3[C@@H]2C)[C@@H](O)[C@H]1O[C@@H]1O[C@H](C)[C@H](O)[C@H](O)[C@H]1O strictly below 10 µM?
N

Decide: IC50 of C=C1CO[C@@]2(O[C@H]3C[C@H]4[C@@H]5CC=C6C[C@@H](O)C[C@@H](O[C@@H]7OC[C@H](O)[C@H](O[C@@H]8OC[C@@H](OC(C)=O)[C@H](O)[C@H]8O)[C@H]7O[C@@H]7O[C@@H](C)[C@H](OC(C)=O)[C@@H](OC(C)=O)[C@H]7OC(C)=O)[C@]6(C)[C@H]5CC[C@]4(C)[C@H]3[C@@H]2C)[C@@H](O)[C@H]1O[C@@H]1O[C@H](C)[C@H](O)[C@H](O)[C@H]1O strictly below 10 µM?
N

Decide: IC50 of C=C1CO[C@@]2(O[C@H]3C[C@H]4[C@@H]5CC=C6C[C@@H](O)C[C@@H](O[C@@H]7OC[C@H](O)[C@H](O)[C@H]7O[C@@H]7O[C@@H](C)[C@H](OC(C)=O)[C@@H](OC(C)=O)[C@H]7OC(C)=O)[C@]6(C)[C@H]5CC[C@]4(C)[C@H]3[C@@H]2C)[C@@H](O)[C@H]1O[C@@H]1O[C@H](C)[C@H](O)[C@H](O)[C@H]1O strictly below 10 µM?
N

Decide: IC50 of C=C(CCC1=C(C)[C@H]2[C@H](C[C@H]3[C@@H]4CC=C5C[C@@H](O)C[C@@H](O[C@@H]6OC[C@H](O)[C@H](O)[C@H]6O[C@@H]6O[C@@H](C)[C@H](O)[C@@H](O)[C@H]6O)[C@]5(C)[C@H]4CC[C@@]32C)O1)CO[C@@H]1O[C@H](CO)[C@@H](O)[C@H](O)[C@H]1O strictly below 10 µM?
N

Decide: IC50 of C=C1CC[C@@]2(OC1)O[C@H]1C[C@H]3[C@@H]4CC=C5C[C@@H](O)C[C@@H](O[C@@H]6OC[C@H](O)[C@H](O)[C@H]6O)[C@]5(C)[C@H]4CC[C@]3(C)[C@H]1[C@@H]2C strictly below 10 µM?
N

Decide: IC50 of C=C1CO[C@@]2(O[C@H]3C[C@H]4[C@@H]5CC=C6C[C@@H](O)C[C@@H](O[C@@H]7OC[C@H](O)[C@H](O)[C@H]7O[C@@H]7O[C@@H](C)[C@H](O)[C@@H](O)[C@H]7O)[C@]6(C)[C@H]5CC[C@]4(C)[C@H]3[C@@H]2C)[C@@H](O)[C@H]1O strictly below 10 µM?
Y

Decide: IC50 of CC1CC[C@@]2(OC1)O[C@H]1C[C@@]3(O)[C@@H]4CC=C5C[C@@H](O)C[C@@H](O)[C@]5(C)[C@H]4CC[C@]3(C)[C@H]1[C@@H]2C (single isomer, unassigned) strictly below 10 µM?
N

Decide: IC50 of C=C1CO[C@@]2(O[C@H]3C[C@H]4[C@@H]5CC=C6C[C@@H](O)C[C@@H](O[C@@H]7OC[C@H](O)[C@H](O[C@@H]8OC[C@@H](O)[C@H](O)[C@H]8O)[C@H]7O[C@@H]7O[C@@H](C)[C@H](OC(C)=O)[C@@H](OC(C)=O)[C@H]7OC(C)=O)[C@]6(C)[C@H]5CC[C@]4(C)[C@H]3[C@@H]2C)[C@@H](O)[C@H]1O[C@@H]1O[C@H](C)[C@H](O)[C@H](O)[C@H]1O strictly below 10 µM?
N

Decide: IC50 of COc1cccc2c1C(=O)c1c(O)c3c(c(O)c1C2=O)C[C@@](O)(C(=O)CO)C[C@@H]3O[C@H]1C[C@H](N)[C@H](O)[C@H](C)O1 [DOXORUBICIN HYDROCHLORIDE] strictly below 10 µM?
Y

Decide: IC50 of O=c1[nH]cc(F)c(=O)[nH]1 strictly below 10 µM?
Y

Value source: ChEMBL document CHEMBL1155759
